B1: H2-Kb / B6 (parent)
chain 1: GDSVTQTEGLVTVTEGLPVKLNCTYQTTYLTIAFFWYVQYLNEAPQVLLKSSTDNKRTEHQGFHATLHKSSSSFHLQKSSAQLSDSALYYCALSLGNAGAKLTFGGGTRLTVRP
chain 2: EAAVTQSPRNKVTVTGGNVTLSCRQTNSHNYMYWYRQDTGHGLRLIHYSYGAGNLQIGDVPDGYKATRTTQEDFFLLLELASPSQTSLYFCASSDGMISSSYEQYFGPGTRLTVL
chain 3: not shown
chain 4: IQKTPQIQVYSRHPPENGKPNILNCYVTQFHPPHIEIQMLKNGKKIPKVEMSDMSFSKDWSFYILAHTEFTPTETDTYACRVKHDSMAEPKTVYWDRDM
chain 5: SIINFEKL

Variants of: B1
Test: % of reporter cells activated (NFAT-GFP), raw; note: test concentration or dose not given here
Set-up: unit not given here
Conditions: with B6

{"columns": ["variant.key", "ratio to parent"],
 "data": [
  ["chain 5 N4Q", 0.993],
  ["chain 5 K7V", 0.872],
  ["chain 5 K7F", 0.812],
  ["chain 5 N4A", 1.17],
  ["chain 5 F5N", 0.966],
  ["chain 5 E6G", 0.664],
  ["chain 5 L8I", 0.758],
  ["chain 5 I3Y", 1.23],
  ["chain 5 K7S", 0.644],
  ["chain 5 L8T", 0.55],
  ["chain 5 L8G", 1.09],
  ["chain 5 E6R", 0.711],
  ["chain 5 S1T", 1.07],
  ["chain 5 N4P", 1.13],
  ["chain 5 E6N", 1.07]
]}
